# tgt: Recombinant human MASP2 enzyme (fragment corresponding to amino acids 297-686, C-terminal His Tag) (human, UniProt O00187 297-686)
# Sequence (O00187 other isoform, or with tags, fused parts or gaps limits assumed): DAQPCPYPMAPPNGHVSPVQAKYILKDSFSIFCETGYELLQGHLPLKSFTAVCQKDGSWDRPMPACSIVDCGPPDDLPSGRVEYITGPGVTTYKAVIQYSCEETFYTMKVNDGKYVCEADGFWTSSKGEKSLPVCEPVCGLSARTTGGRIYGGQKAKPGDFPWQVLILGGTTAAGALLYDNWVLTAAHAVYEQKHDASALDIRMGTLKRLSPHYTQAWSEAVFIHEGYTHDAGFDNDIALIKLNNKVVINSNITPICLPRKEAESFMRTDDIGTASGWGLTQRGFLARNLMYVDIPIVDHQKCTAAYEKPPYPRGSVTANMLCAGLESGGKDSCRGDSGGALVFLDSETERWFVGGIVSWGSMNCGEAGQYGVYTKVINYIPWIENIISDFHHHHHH
# experimental details: cell-based or functional assay
Bridge positions count the residues as written; N and C are the ends. Square brackets hold non-standard residues; d marks the D form. Primed or numbered codes have the meaning given here. Ends that are not written are not given here. * marks the point of attachment. Tranexamic″ = tranexamic acid, NC[C@H]1CC[C@@H](C(=O)*)CC1; Oic = O=C(O)[C@@H]1C[C@@H]2CCCC[C@@H]2N1; tBuAla = CC(C)(C)C[C@H](N)C(=O)O; Chg = N[C@H](C(=O)O)C1CCCCC1; Pen = CC(C)(S)[C@H](N)C(=O)O; NMeC = CN[C@@H](CS)C(=O)O; GABA = NCCCC(=O)O; Sar = CNCC(=O)O
Cut-off 200 nM on human MASP2 IC50: below means TRUE, at or above means FALSE.

Examples from the recorded data:
{Tranexamic″}-ICSRS[tBuAla]PPI[NMeC]I-NH2 (disulfide 2-10; SMILES CC[C@H](C)[C@H](NC(=O)[C@@H]1CSSC[C@H](NC(=O)[C@@H](NC(=O)[C@H]2CC[C@@H](CN)CC2)[C@@H](C)CC)C(=O)N[C@@H](CO)C(=O)N[C@@H](CCCNC(=N)N)C(=O)N[C@@H](CO)C(=O)N[C@@H](CC(C)(C)C)C(=O)N2CCC[C@H]2C(=O)N2CCC[C@H]2C(=O)N[C@@H]([C@@H](C)CC)C(=O)N1C)C(N)=O) [(Tranexamic)-IC+SRS-((tBu)A)-PPI-((N-Me)C)+I-NH2] = TRUE
[dA]ICSRSLP[Oic]I[Pen]IPE-NH2 (disulfide 3-11; N-terminus assumed; SMILES CC[C@H](C)[C@H](NC(=O)[C@@H](C)N)C(=O)N[C@H]1CSSC(C)(C)[C@@H](C(=O)N[C@H](C(=O)N2CCC[C@H]2C(=O)N[C@@H](CCC(=O)O)C(N)=O)[C@@H](C)CC)NC(=O)[C@H]([C@@H](C)CC)NC(=O)[C@@H]2C[C@@H]3CCCC[C@@H]3N2C(=O)[C@@H]2CCCN2C(=O)[C@H](CC(C)C)NC(=O)[C@H](CO)NC(=O)[C@H](CCCNC(=N)N)NC(=O)[C@H](CO)NC1=O) [aIC+SRSLP-(Oic)-I-(Pen)+IPE-NH2] = TRUE
AICSRS[3‑(Trimethylsilyl)‑L‑alanine]P[Oic]I[NMeC]IPD-NH2 (disulfide 3-11) [AIC+SRS-(3-(Trimethylsilyl)-L-alanine)-P-(Oic)-I-((N-Me)C)+IPD-NH2] = FALSE
[GABA]ICSRS[tBuAla]PPI[NMeC]IPD-NH2 (disulfide 3-11; N-terminus assumed; SMILES CC[C@H](C)[C@H](NC(=O)CCCN)C(=O)N[C@H]1CSSC[C@@H](C(=O)N[C@H](C(=O)N2CCC[C@H]2C(=O)N[C@@H](CC(=O)O)C(N)=O)[C@@H](C)CC)N(C)C(=O)[C@H]([C@@H](C)CC)NC(=O)[C@@H]2CCCN2C(=O)[C@@H]2CCCN2C(=O)[C@H](CC(C)(C)C)NC(=O)[C@H](CO)NC(=O)[C@H](CCCNC(=N)N)NC(=O)[C@H](CO)NC1=O) [(Gamma-Abu)-IC+SRS-((tBu)A)-PPI-((N-Me)C)+IPD-NH2] = FALSE
AICSRSLPP[Chg]CIPD-OH (disulfide 3-11; N-terminus assumed; SMILES CC[C@H](C)[C@H](NC(=O)[C@H](C)N)C(=O)N[C@H]1CSSC[C@@H](C(=O)N[C@H](C(=O)N2CCC[C@H]2C(=O)N[C@@H](CC(=O)O)C(=O)O)[C@@H](C)CC)NC(=O)[C@H](C2CCCCC2)NC(=O)[C@@H]2CCCN2C(=O)[C@@H]2CCCN2C(=O)[C@H](CC(C)C)NC(=O)[C@H](CO)NC(=O)[C@H](CCCNC(=N)N)NC(=O)[C@H](CO)NC1=O) [AIC+SRSLPP-(Chg)-C+IPD-OH] = TRUE
[dK]ICSRS[tBuAla]PPI[Pen]I-NH2 (disulfide 3-11; N-terminus assumed; SMILES CC[C@H](C)[C@H](NC(=O)[C@H]1NC(=O)[C@H]([C@@H](C)CC)NC(=O)[C@@H]2CCCN2C(=O)[C@@H]2CCCN2C(=O)[C@H](CC(C)(C)C)NC(=O)[C@H](CO)NC(=O)[C@H](CCCNC(=N)N)NC(=O)[C@H](CO)NC(=O)[C@@H](NC(=O)[C@@H](NC(=O)[C@H](N)CCCCN)[C@@H](C)CC)CSSC1(C)C)C(N)=O) [kIC+SRS-((tBu)A)-PPI-(Pen)+I-NH2] = TRUE

Then this binder:
Problem: human MASP2 IC50 under 200 nM? Item: [Sar]ICSRSLP[Oic]I[Pen]IP-OH (disulfide 3-11; N-terminus assumed; SMILES CC[C@H](C)[C@H](NC(=O)CNC)C(=O)N[C@H]1CSSC(C)(C)[C@@H](C(=O)N[C@H](C(=O)N2CCC[C@H]2C(=O)O)[C@@H](C)CC)NC(=O)[C@H]([C@@H](C)CC)NC(=O)[C@@H]2C[C@@H]3CCCC[C@@H]3N2C(=O)[C@@H]2CCCN2C(=O)[C@H](CC(C)C)NC(=O)[C@H](CO)NC(=O)[C@H](CCCNC(=N)N)NC(=O)[C@H](CO)NC1=O) [((N-Me)G)-IC+SRSLP-(Oic)-I-(Pen)+IP-OH]
Result: FALSE

Source of measurements: patent US20210246166A1
